# TGT: EPHB2 (UniProt P29323)
# Sequence (P29323 whole entry, looked up): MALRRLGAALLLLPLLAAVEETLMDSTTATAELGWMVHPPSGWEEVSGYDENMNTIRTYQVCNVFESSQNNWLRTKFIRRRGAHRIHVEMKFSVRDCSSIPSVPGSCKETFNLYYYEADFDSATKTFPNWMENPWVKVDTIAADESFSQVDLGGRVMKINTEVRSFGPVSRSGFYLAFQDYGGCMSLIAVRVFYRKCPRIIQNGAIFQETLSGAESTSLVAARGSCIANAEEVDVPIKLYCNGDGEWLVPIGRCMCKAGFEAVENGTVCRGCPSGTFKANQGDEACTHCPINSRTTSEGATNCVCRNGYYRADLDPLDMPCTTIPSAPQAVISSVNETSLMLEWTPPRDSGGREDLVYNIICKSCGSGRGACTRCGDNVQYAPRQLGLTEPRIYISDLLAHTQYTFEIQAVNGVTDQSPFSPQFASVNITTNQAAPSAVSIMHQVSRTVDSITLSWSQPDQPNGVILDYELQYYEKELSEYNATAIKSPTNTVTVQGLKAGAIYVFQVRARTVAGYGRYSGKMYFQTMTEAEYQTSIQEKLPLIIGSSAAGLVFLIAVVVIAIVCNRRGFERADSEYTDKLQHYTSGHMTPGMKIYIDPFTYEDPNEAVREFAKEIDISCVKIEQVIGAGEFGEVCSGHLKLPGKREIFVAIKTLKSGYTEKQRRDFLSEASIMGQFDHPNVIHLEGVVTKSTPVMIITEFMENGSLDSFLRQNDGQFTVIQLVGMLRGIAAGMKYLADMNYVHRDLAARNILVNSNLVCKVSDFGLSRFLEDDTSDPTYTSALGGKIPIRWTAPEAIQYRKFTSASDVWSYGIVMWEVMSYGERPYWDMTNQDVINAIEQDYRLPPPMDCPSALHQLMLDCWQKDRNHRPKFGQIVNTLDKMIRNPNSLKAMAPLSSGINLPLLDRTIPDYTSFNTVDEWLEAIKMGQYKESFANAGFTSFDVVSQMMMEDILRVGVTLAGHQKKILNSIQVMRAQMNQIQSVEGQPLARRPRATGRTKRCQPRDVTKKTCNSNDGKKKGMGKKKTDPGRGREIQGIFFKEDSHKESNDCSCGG
# PROCEDURE SUMMARY: phosphorylation enrichment, bacterial display (enrichment ratio); higher = better substrate or ligand; peptides without Tyr show the background
Below, each of the sequences is paired with its reported phosphorylation enrichment value.
Just the number, please.

IKKLIYVYLVI [JAGN1_Y42_H44Y]    0.411

Query: phosphorylation enrichment; subject: QDDTVYMGKVT [DCTN1_Y1244]
0.918

Another sequence to check: GESLTYASTTF [C1orf162_Y120]
0.644

Another sequence to check: AFPGEYIPTVF [RAC1_Y32]
0.476

Another sequence to check: LSDGPYSSPFE [EPOR_Y485_N487S_YF]
0.53

Another sequence to check: MSDVPYVMNRG [ACAT1_Y161_N158D]
0.452

Another sequence to check: TRDVNYGWTIR [MT-CYB_Y75_I78T]
0.648

====

# TGT: FGFR3 (UniProt P22607)
# Sequence (P22607 whole entry, looked up): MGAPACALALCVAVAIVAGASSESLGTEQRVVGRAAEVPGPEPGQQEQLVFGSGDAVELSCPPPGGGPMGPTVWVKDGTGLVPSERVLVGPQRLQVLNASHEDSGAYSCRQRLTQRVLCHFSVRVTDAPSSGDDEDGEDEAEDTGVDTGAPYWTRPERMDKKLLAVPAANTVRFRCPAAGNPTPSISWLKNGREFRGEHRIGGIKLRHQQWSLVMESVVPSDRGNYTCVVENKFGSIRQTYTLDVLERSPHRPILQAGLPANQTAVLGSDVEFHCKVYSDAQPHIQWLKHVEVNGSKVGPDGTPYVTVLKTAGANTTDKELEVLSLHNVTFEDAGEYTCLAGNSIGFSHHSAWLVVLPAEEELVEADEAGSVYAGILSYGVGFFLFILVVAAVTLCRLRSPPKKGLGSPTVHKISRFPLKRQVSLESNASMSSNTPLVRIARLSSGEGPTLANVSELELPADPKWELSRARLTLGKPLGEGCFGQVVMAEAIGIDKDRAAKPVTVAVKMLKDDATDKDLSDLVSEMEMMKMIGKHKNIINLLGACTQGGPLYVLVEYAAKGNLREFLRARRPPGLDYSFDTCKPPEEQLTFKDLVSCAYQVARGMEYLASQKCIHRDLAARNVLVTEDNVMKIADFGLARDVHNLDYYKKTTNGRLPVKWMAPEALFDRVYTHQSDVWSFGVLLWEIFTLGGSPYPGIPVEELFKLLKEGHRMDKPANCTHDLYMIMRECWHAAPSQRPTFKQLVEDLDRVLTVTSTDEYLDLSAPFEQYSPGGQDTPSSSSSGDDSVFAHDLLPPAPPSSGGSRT
# PROCEDURE SUMMARY: phosphorylation enrichment, bacterial display (enrichment ratio); higher = better substrate or ligand; peptides without Tyr show the background
Would you mind labelling by phosphorylation enrichment? At or over 0.8 is Criterion met, under is Criterion not met.

Here are 2 sequences together with their reported answers.
SVQVEYMKTIL [GLYATL2_Y127_D126E]    Criterion not met
YSTDCYRVGGH [NTRK2_Y707_Y706C]    Criterion not met

Please check the record TNYSLYLRSLE [MTM1_Y71_R69S] and state if its phosphorylation enrichment is at or above 0.8.
Criterion not met

Another sequence to check: LQLLGHRPVYS [CHST6_Y358_Y358H]
Criterion not met

====

# TGT: SHP2-C SH2
# PROCEDURE SUMMARY: SH2 binding enrichment of the phosphorylated peptide, bacterial display (enrichment ratio); higher = better substrate or ligand; peptides without Tyr show the background
Output: class label from SH2 binding enrichment. Mapping: range A (below 0.7), range B (0.7 to below 0.9), range C (0.9 or more)

Here are 5 sequences together with their reported answers.
IGCHAYGDQFR [IDH1_Y135_R132C_YF]    range A
KPVEEYANCHL [TF_Y593]    range B
KDQGTYEDFVE [MYL6_Y86_YF]    range A
CITIHYNFMCN [TP53_Y234_T230I_YF]    range C
TLSGIYQFIIA [FOXL2_Y81_YF]    range C

// return the class label for CTTFHYNFMCN [TP53_Y234_I232F_YF]
range C

Another sequence to check: ITVPAYFNDLQ [HSPA9_Y196_S200L]
range B

Another sequence to check: RFVTRSIFNRE [HLA-DQB1_Y62_Y62S_YF]
range A

Another sequence to check: RTEAQYRFIYM [PTPN11_Y511_Q506R]
range A

Another sequence to check: FTFDPYSEEEP [IL2RB_Y387_D391E_YF]
range C

Another sequence to check: WPQKLYNNFVN [MYO5C_Y526_L522P]
range A

====

# TGT: EPHB2 (UniProt P29323)
# PROCEDURE SUMMARY: phosphorylation enrichment, bacterial display (enrichment ratio); higher = better substrate or ligand; peptides without Tyr show the background
Below, each of the sequences is paired with its reported phosphorylation enrichment value.

KKHIPYKEHKS [CSNK1G1_Y205_R206K]    0.951
RVVVPYEPPEV [TP53_Y220_S215R]    0.505
NTYEKYWPFYQ [GATM_Y103]    8.15
HGEAFYSEVKP [PAK5_Y182_YF]    1.37
FSIDHYLGKEM [G6PD_Y202_R198S_YF]    0.61
TRDVNYGWIIR [MT-CYB_Y75]    0.91

Below: the item to evaluate.
Form field: phosphorylation enrichment recorded for HNELFYEEAEH [VANGL1_Y345_YF] with EPHB2 (UniProt P29323) (enter value)
0.932

Values from the supplement of paper PMC10065799
